Tested on: OVCAR-8 ovarian
assay name: NCI tumour cell line growth inhibition, 48 h
Exercise: state measured TGI for each of the compounds provided.

Please state, for each entry, its recorded TGI.
1. CCOC(=O)/C(C#N)=C(O)/C(=C/c1ccccc1Cl)NC(=O)c1ccccc1
2. CCCCCCCCCC(=O)OCC1(CO)C/C(=C/CC(C(C)C)C(C)C)C(=O)O1 (stereo unspecified)
3. CN(C)c1ccc(C2CC(=O)CC(c3ccc(N(C)C)cc3)C23C(=O)NC(=O)NC3=O)cc1 (stereo unspecified)

["> 100 µM", "> 100 µM", "> 25 µM"]

Please state, for each entry, its recorded TGI.
1. Cc1ccc(NC(=O)c2ccnc(C(F)(F)F)c2)cc1-c1cc(OCCO)nc(N2CCOCC2)c1
2. CSC(=S)N(C)c1nc(=[N+](C)C)ss1
3. O=c1c2cc(Br)ccc2oc2ccc(Br)cc12

1: > 100 µM; 2: > 100 µM; 3: > 100 µM

====

Exercise: state measured TGI for each of the compounds provided.
System: SF-295 CNS
assay name: NCI tumour cell line growth inhibition, 48 h

compound | TGI
N#Cc1c(-c2ccccc2)c(C#N)c(=O)n(NS(=O)(=O)c2ccccc2)c1O | > 100 µM
O=C1N=C2c3c(sc4c3CCCC4)N=CN2C1N=Nc1ccc(Cl)cc1 (centres undefined) | 86.2 µM
CN(C)c1cccc2[nH]c(-c3[nH]ncc3Nc3ccnc(N)n3)nc12 | 0.0628 µM
O=C(O)C(/C=C/c1ccco1)=N\Nc1nc(-c2ccc(Cl)cc2)cs1 | 4.23 µM
CC(=NNC(=S)Nc1ccccc1C)c1cccc(C(C)=NNC(=S)Nc2ccccc2C)n1 | > 100 µM

Please state, for each entry, its recorded TGI.
1. O=c1c2cc(I)ccc2nc(-c2cccs2)n1Nc1ccccc1
2. CN(C(=O)C1=CCCCCC1)c1ccccc1I

["32.9 µM", "> 100 µM"]

====

System: MOLT-4 leukemia
assay name: NCI tumour cell line growth inhibition, 48 h; in the data active = GI50 below about 0.43 µM; inactive = the rest
Hello, when you answer, please use one of the following outcomes: active, inactive

Answered examples (8):
molecule | group label
COC(=O)C1=CN(CC2=CC(=O)C(C)=CC2=O)C=C(C(=O)OC)C1c1cccc(OC)c1OC | inactive
COC(=O)Nc1ccc2ccc3c(NC(=O)OC)ccc4ccc1c2c43 (tested in a mixture with another compound) | inactive
CCN(CC)c1ccc(/C=N/NC(=O)c2ccc(Nc3ccnc(C(F)(F)F)c3)cc2)c(O)c1 | active
O=C(CNC(=O)c1cccc2ccccc12)Nc1ccccc1Oc1cccc(O)c1 | inactive
CCCCCC(=O)N1c2ccccc2NC2=C(C(=O)CC(c3ccc(OC)c(OC)c3)C2)C1c1ccc(C(F)(F)F)cc1 (centres undefined) | inactive
COc1n[n+]([O-])c(C)cc1[N+](=O)[O-] | inactive
COc1ccc(NC2=C(Sc3nc(C)cc(C)n3)C(=O)N(Cc3ccccc3)C2=O)cc1Cl | inactive
FC(F)(F)c1ccc2c(c1)N(CCCN1CCN(C3CC3)CC1)c1ccccc1S2 | inactive

Look up the recorded call for "O=C(Oc1ccccc1)c1cc(O)c(O)c(O)c1" in this test.
inactive

====

Tested on: LOX IMVI melanoma
assay name: NCI tumour cell line growth inhibition, 48 h
readout kind: TGI

Take a look at these entries with their results.
molecule | TGI
CCCCCCN1C(=O)/C(=c2\sc3n(c2=O)C2C(NN=3)N(CC)C(=O)N2CC)c2ccccc21 (stereo not given) | > 50 µM
CC(=O)Nc1ccc(-c2nnc(SCC(=O)Nc3ccccc3Cl)o2)cc1 | > 100 µM
CCOc1ccc(NCC(=O)N2CC(=O)Nc3ccccc32)cc1 | > 100 µM
Cc1ccc2c(c1)C(C1Cc3c(C)cccc3C1=O)OC2=O (stereo not given) | > 100 µM
CC1CCC2(OC1)OC1CC3C4CC=C5CC(OC6OC(CO)C(OC7OC(C)C(OC8OC(C)C(O)C(O)C8O)C(O)C7O)C(O)C6OC6OC(C)C(O)C(O)C6O)CCC5(C)C4CCC3(C)C1C2C (stereo not given) | 0.733 µM

Please state, for each entry, its recorded TGI.
1. CSc1nc(=S)[nH]c2n[nH]c(C)c12
2. c1ccc(C2=NN(c3ccccc3)C3(S2)SC(c2ccccc2)(c2ccccc2)c2ccccc23)cc1 (stereo not given)
3. O=C(Nc1ccccc1)N1CCNC1=S
4. O=C1N=C2c3c(sc4c3CCCC4)N=CN2C1N=Nc1ccc(Cl)cc1 (stereo not given)
5. C[N+](C)(C)CC1Cc2ccccc2C1=O (stereo not given)
6. CN1CC=C(OP(=O)(NCc2ccccc2)N(CCCl)CCCl)CC1 (stereo not given)
7. O=C(Cc1ccccc1)N/N=C(/CCN1CCCC1)CC(c1ccccc1)c1c(O)c2ccccc2oc1=O (stereo not given)

> 100 µM
> 100 µM
> 100 µM
> 100 µM
> 10 µM
> 100 µM
44.4 µM

Please state, for each entry, its recorded TGI.
1. Cc1ccc2c(ccc3c[n+]4ccccc4c(C)c32)c1
2. COc1ccc2c(c1)c(Cc1c(C)n(C)c3ccc(OC)cc13)c(C)n2C
3. O=C(Nc1ccccc1Cl)c1cnc2ccc(C3CCNCC3)cn12
4. CC(C)=CCC/C(C)=C/Cc1cc(/C=C/c2cc(O)c(CC=C(C)C)c(O)c2)cc(O)c1O
5. CCNC(=O)C(O)C1(O)CCC2[C@@H]3CCC4=CC(=O)C=C[C@]4(C)C3[C@@H](O)C[C@@]21C (stereo not given in full)
6. Cn1cnc2c(F)c(Nc3ccc(Br)cc3Cl)c(C(=O)NOCCO)cc21
7. Cc1c(CCN=P(c2ccccc2)(c2ccccc2)c2ccccc2)c(=O)n2c([nH]c3ccccc32)c1C#N
8. CC(=NNC(=S)Nc1ccccc1C)c1cccc(C(C)=NNC(=S)Nc2ccccc2C)n1

27.8 µM
> 100 µM
17 µM
7 µM
> 100 µM
> 80.9 µM
> 10 µM
> 100 µM

====

System: NCI/ADR-RES ovarian
assay name: NCI tumour cell line growth inhibition, 48 h
readout kind: TGI

compound | result
Cc1ccc2c(ccc3c[n+]4ccccc4c(C)c32)c1 | > 100 µM
CCCCCCC(N)(CCCCCC)C(=O)Nn1c(C)ccc1C | > 100 µM
COc1cc2c(/C=C3/C(=O)Nc4ccccc43)c(Cl)n(Cc3ccccc3)c2cc1C | > 100 µM
O=C(O)CC(Cc1ccc2c(c1)OCO2)C(=O)O (stereo not drawn) | > 100 µM
COc1ccc(C2CC(=O)Nc3c2c(C)nn3-c2nc3ccccc3[nH]2)cc1 (stereo not drawn) | > 100 µM
CC(=NNC(=S)Nc1ccccc1C)c1cccc(C(C)=NNC(=S)Nc2ccccc2C)n1 | > 100 µM
COc1cc2c(cc1OCCCCCOc1cc(-c3ccc(F)cc3)nc(C)n1)N=C[C@@H]1CCCN1C2=O | > 100 µM
O=C1N=C2c3c(sc4c3CCCC4)N=CN2C1N=Nc1ccc(Cl)cc1 (stereo not drawn) | > 100 µM

Please state, for each entry, its recorded TGI.
1. Cc1[nH]c2ncn(/N=C/c3ccccc3)c(=N)c2c1Cc1ccccc1
2. N[C@@H]1C[C@H](N)c2c(Cl)sc(Cl)c21
3. O=C(CNC(=O)c1cccc2ccccc12)Nc1ccccc1Oc1cccc(O)c1
4. Cc1c(C(=O)/C=C/c2ccc(O)cc2)nnn1-c1ccnc2c(C(F)(F)F)cccc12

> 100 µM
> 100 µM
> 25 µM
> 100 µM

Please state, for each entry, its recorded TGI.
1. CCOC(=O)c1cc2c(cc1Cl)SC(N(c1ccc(F)cc1)S(=O)(=O)c1ccc(OC)cc1)=NS2(=O)=O
2. COC(=O)n1c(=O)nc2c3c(ncn21)Oc1c(c(-c2ccccc2)nn1-c1ccccc1)C3c1ccc(Cl)cc1 (stereo not drawn)
3. N#Cc1c(-c2ccccc2)c(C#N)c(=O)n(NS(=O)(=O)c2ccccc2)c1O
4. COc1ccc(-c2ccc(/C=N/n3cn[nH]c3=S)o2)c([N+](=O)[O-])c1
5. CC(C)=CCC/C(C)=C/Cc1cc(/C=C/c2cc(O)c(CC=C(C)C)c(O)c2)cc(O)c1O
6. Oc1ccccc1C=Nc1ccc(Oc2ccc(Cl)cc2)c(Cl)c1
7. CC1(C)OC2C(CO)OC(n3ccc(=O)[nH]c3=O)C2O1 (stereo not drawn)

1: 42.1 µM; 2: 2.77 µM; 3: > 100 µM; 4: 94 µM; 5: 13.3 µM; 6: 47.5 µM; 7: > 100 µM

====

Tested on: SF-268 CNS
assay name: NCI tumour cell line growth inhibition, 48 h
readout kind: TGI

Take a look at these entries with their results.
compound | tested system | readout kind | result
Cn1c2ccccc2c2c(=O)n(CCCC(=O)NCC(=O)OC(=NC3CCCCC3)NC3CCCCC3)c3c(-c4ccccc4)nnn3c21 | SF-268 CNS | TGI | > 100 µM
CC(=NNC(=S)Nc1ccccc1C)c1cccc(C(C)=NNC(=S)Nc2ccccc2C)n1 | SF-268 CNS | TGI | > 100 µM

Please state, for each entry, its recorded TGI.
1. CC(=O)c1c2c(cc3c1CC1(Cc4cc5c(cc4C1)CCC5)C3)CCC2
2. Cc1cccc(C(C)(C)C)c1NC(=O)CC1C(=O)Nc2ccccc2S1=O (stereo not given)
3. Cc1ccc(S(=O)(=O)N/N=C2\C(=O)C3CC2C(Cl)C3Cl)cc1 (stereo not given)
4. O=C(Nc1ccccc1)N1CCNC1=S

1. > 100 µM
2. > 100 µM
3. > 100 µM
4. > 100 µM

Please state, for each entry, its recorded TGI.
1. COc1ccc(NC(=O)C2=C(SC)C(C#N)C(=O)N=C2N)cc1 (stereo not given)
2. COc1ccc(/C=C/C(=O)c2ccc(Nc3ncnc4ccccc34)cc2)cc1OC

["> 100 µM", "> 100 µM"]

Reference for the values: PubChem BioAssay (NCI)
